// reported IRF reporter per item
- System: RAW-Dual (murine macrophage reporter line)
- Test: IRF reporter (Lucia luciferase) activity fold change vs agonist alone; higher = enhanced IRF activity
- Applied conditions: modulator concentration 10 µM; agonist: 3'3'-cGAMP 10 ug/mL
The answer should be a number; do not append a unit.

Some compounds with known IRF reporter results, for comparison:
> print(dat)
                                    compound  meas.value
 1  CCOC(=O)C1=C(C)OC(N)=C(C#N)C1c1ccc(O)c(OCC)c1 (configuration not stated)       0.939
 2  CC(=O)NC(Cc1c[nH]c2ccccc12)C(=O)O (configuration not stated)       0.969
 3  CCOC(=O)N1CCN(C(=O)C2CCN(Cc3ccc(C)o3)CC2)CC1        1.02
 4  O=C1CSC(=S)N1N=Cc1ccc(O)c([N+](=O)[O-])c1        1.04
 5  CCn1cc(C(=O)O)c(=O)c2cc(F)c(N3CCN(C)CC3)cc21.CS(=O)(=O)O.O.O       0.863
 6  O=C(CCCN1CC=C(n2c(=O)[nH]c3ccccc32)CC1)c1ccc(F)cc1       0.975
 7  CC1=C(C)CC2C(=O)N(c3ccccc3C)C(=O)C2C1 (configuration not stated)       0.982
 8           O=S(=O)(NCc1ccccn1)c1cccc(Cl)c1        1.02
 9  CC1=C(C(=O)Nc2ccc(C)cn2)C(c2ccccc2Cl)C2=C(CCCC2=O)N1 (configuration not stated)        1.02
10  CCOC(=O)C(CCc1ccccc1)NC(C)C(=O)N1C(C(=O)O)CC2CCCC21 (configuration not stated)       0.878

Query block: May I ask what IRF reporter has been recorded for CCOc1ccc2nc(NC(=O)c3ccc(Br)cc3F)sc2c1 ?
Result block: 0.873

Query block: // next record COc1cc(C=Nc2ccc(-c3ccc(N=Cc4cc(OC)c(OC)cc4[N+](=O)[O-])cc3)cc2)c([N+](=O)[O-])cc1OC
Result block: 0.769

* * *

- System: RAW-Dual (murine macrophage reporter line)
- Test: IRF reporter (Lucia luciferase) activity fold change vs agonist alone; higher = enhanced IRF activity
- Applied conditions: modulator concentration 10 µM; agonist: LPS 0.1 ug/mL
Record 1 whenever IRF reporter is at 1 or higher; record -1 when lower.

Study these solved cases before continuing.
> print(dat)
                                   molecule  class.label
1  CC1(C)Cc2c(sc3nc(SCC(N)=O)n(CCc4ccccc4)c(=O)c23)CO1            1
2  O=C(C=Cc1ccccc1)NC(NC(=S)Nc1ccc(Cl)cc1)C(Cl)(Cl)Cl (stereo unspecified)           -1
3  O=c1ccc(-c2ccncc2)nn1CC1CCN(CC(F)(F)F)CC1           -1

Query block: Quick check, IRF reporter >= 1? COc1ccc(Cc2nnc(C3CCN(S(C)(=O)=O)CC3)s2)cc1
Result block: 1

Query block: // next record CN(C)c1nc(CNC(=O)CSc2nc3ccccc3o2)nc(N(C)C)n1
Result block: 1

Query block: // next record CCC(NC(C)C)C(O)c1ccc(O)c(O)c1 (stereo unspecified) [Prestw-749]
Result block: -1

Query block: // next record Cc1ccc(-n2ncc3c(SCC(=O)NC(C)(C)C)ncnc32)c(C)c1
Result block: -1

* * *

- Tested on: RAW-Dual (murine macrophage reporter line)
- Test: NF-kB reporter (SEAP) activity fold change vs agonist alone; higher = enhanced NF-kB activity
- Applied conditions: modulator concentration 10 µM; agonist: LPS 0.1 ug/mL
Reported metric: NF-kB reporter
The answer should be a number; do not append a unit.

Some molecules with known NF-kB reporter results, for comparison:
> print(dat)
                                 smiles.str                               target.desc  meas.value
1  CCc1c(C)nc(-n2nc(C)cc2NC(=O)CSCc2ccccc2)[nH]c1=O  RAW-Dual (murine macrophage reporter line)       0.603
2  COc1cc(C(=O)O)ccc1NC(=O)[C@@H]1N[C@@H](CC(C)(C)C)[C@](C#N)(c2ccc(Cl)cc2F)[C@H]1c1cccc(Cl)c1F  RAW-Dual (murine macrophage reporter line)       0.513
3                        CNCCc1ccccn1.Cl.Cl  RAW-Dual (murine macrophage reporter line)       0.956
4  COc1ccc2c(Cl)c(C(=O)N3CCc4ccccc4C3)sc2c1  RAW-Dual (murine macrophage reporter line)        0.87

Please examine the following record next.
Query block: GET /values?readout=NF-kB reporter&system=RAW-Dual (murine macrophage reporter line)&item= O=[N+]([O-])c1cc(C(F)(F)F)ccc1N1CCN(CC=Cc2ccccc2)CC1
Result block: 1.07

* * *

- Test system: RAW-Dual (murine macrophage reporter line)
- Test: IRF reporter (Lucia luciferase) activity fold change vs agonist alone; higher = enhanced IRF activity
- Applied conditions: modulator concentration 10 µM; agonist: 3'3'-cGAMP 10 ug/mL
Record TRUE whenever IRF reporter is at 1 or higher; record FALSE when lower.

Study these solved cases before continuing.
> print(dat)
                                   compound  class.label
1  O=C(Nc1ccc(S(=O)(=O)N2CCOCC2)cc1)c1ccc(Br)s1        FALSE
2  CCCCc1nc2cc(/C=C/C(=O)NO)ccc2n1CCN(CC)CC        FALSE
3    Cc1ccc(C)c(Cc2cc([N+](=O)[O-])ccc2C)c1         TRUE
4  COc1ccc(NC(=O)CN(c2ccc(C)c(C)c2)S(C)(=O)=O)cc1        FALSE
5  CN(C)C(CNC(=O)NCc1ccc(F)cc1)c1ccc2c(c1)CCO2 (stereo not given)         TRUE
6  CS(=O)(=O)c1cccc(C[C@H](NC(=O)c2c(Cl)cc3c(c2Cl)CCN(C(=O)c2ccc4ccoc4c2)C3)C(=O)O)c1         TRUE

Query block: Quick check, IRF reporter >= 1? NCCCCC(NC(CCc1ccccc1)C(=O)O)C(=O)N1CCCC1C(=O)O (stereo not given)
Result block: FALSE

Query block: // next record Cc1cc(NC2CCCC2)nc2ccccc12
Result block: TRUE

Query block: // next record CC(C)Oc1ccc(C(=O)N2CCC(c3ccccc3)S(=O)(=O)CC2)cc1 (stereo not given)
Result block: FALSE

Query block: // next record Cl.Cl.Clc1ccc(Nc2nnc(Cc3ccncc3)c3ccccc23)cc1
Result block: FALSE

* * *

- System: RAW-Dual (murine macrophage reporter line)
- Test: IRF reporter (Lucia luciferase) activity fold change vs agonist alone; higher = enhanced IRF activity
- Applied conditions: modulator concentration 10 µM; agonist: MPLA […]
Reported metric: IRF reporter
The answer should be a number; do not append a unit.

Some compounds with known IRF reporter results, for comparison:
> print(dat)
                                   compound  meas.value
1  CNC(=O)c1cc(Oc2ccc(NC(=O)Nc3ccc(Cl)c(C(F)(F)F)c3)cc2)ccn1.Cc1ccc(S(=O)(=O)O)cc1       0.513
2  CC(=O)Nc1ccc(NC(=S)NC(=O)C=Cc2ccc(Cl)cc2)cc1       0.787
3  O=c1oc2c3c4c(cc2cc1-c1nnc(-c2ccccc2)o1)CCCN4CCC3        1.04
4  CCCCCCCCCCCC(CC1OC(=O)C1CCCCCC)OC(=O)C(CC(C)C)NC=O (stereo unspecified)       0.197

Query block: May I ask what IRF reporter has been recorded for CC(C)(C)N1CC(c2nc3ccccc3n2Cc2c(F)cccc2Cl)CC1=O (stereo unspecified) ?
Result block: 1.28

* * *

// reported IRF reporter per item
- System: RAW-Dual (murine macrophage reporter line)
- Test: IRF reporter (Lucia luciferase) activity fold change vs agonist alone; higher = enhanced IRF activity
- Applied conditions: modulator concentration 10 µM; agonist: 3'3'-cGAMP 10 ug/mL
The answer should be a number; do not append a unit.

Some compounds with known IRF reporter results, for comparison:
> print(dat)
                                    compound  meas.value
 1                                  NC(=O)NO       0.905
 2                NS(=O)(=O)c1ccc(C(=O)O)cc1        1.01
 3                  Clc1ccc2nsnc2c1NC1=NCCN1       0.965
 4           O=C(C(Cl)Cl)N1CCN(Cc2ccccc2)CC1       0.712
 5  COc1cccc(CC(=O)N2CCC(Oc3ccc4ccccc4n3)C2)c1 (stereo unspecified)       0.938
 6  Cc1cc2c(C)cc[n+](CCCS(=O)(=O)[O-])c2cc1C       0.946
 7  CNC1CCCN(c2c(F)cc3c(=O)c(C(=O)O)cn(C4CC4)c3c2OC)C1 (stereo unspecified)        1.02
 8  O=C(C=Cc1ccccc1)c1ccc(OC2OC(CO)C(O)C(O)C2O)cc1O (stereo unspecified)        1.02
 9  O=c1c2ccccc2n(Cc2nc(-c3ccc(F)c(F)c3)no2)c(=O)n1C1CC1       0.995
10  COc1ccc2oc(=O)c(C(=O)Nc3ccc(C(=O)O)cc3)cc2c1        1.08

Query block: May I ask what IRF reporter has been recorded for COc1ccc(-c2noc(-c3ccc(=O)n(Cc4ncc(C)c(OC)c4C)c3)n2)cc1F ?
Result block: 0.961

Source listed as the supplement of paper PMC10646978.
